Assayed System: T1, human TL1A (Fitzgerald #30R-AT070) (human, UniProt O95150 72-251, limits assumed)
T1 construct: Coated on the ELISA plate at 1 ug/mL; also called TNFSF15
T1 sequence (looked up): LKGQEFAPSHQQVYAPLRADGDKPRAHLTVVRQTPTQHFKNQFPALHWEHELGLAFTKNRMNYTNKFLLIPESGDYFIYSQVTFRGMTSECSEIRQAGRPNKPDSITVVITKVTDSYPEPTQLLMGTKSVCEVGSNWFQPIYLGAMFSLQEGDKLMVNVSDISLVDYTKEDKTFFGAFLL
Test Method Notes: ELISA titration, coated human TL1A, culture supernatant
Observable: pKd
pKd is defined as minus the log10 of a concentration measured in mol/L.

binder="A50 (antibody, human IgG1, V domains shown, human IgG1/kappa (pFuse vectors), culture supernatant) VH: QVQLVQSGAEVKKPGASVKVSCKASGFDIQDTYMHWVKQRPGQGLEWIGRIDPASGHTKYDPKFQVRATITTDTSTSTAYLELSSLRSEDTAVYYCARSGGLPDVWGQGTTVTVSS VL: EIVLTQSPGTLSASPGERATMSCRASSSVSYMYWYQQKPGQAPRPWIYATSNLASGVPDRFSGSGSGTDFTLTISRVEPEDFAVYYCQQWSGNPRTFGGGTKLEIK" value_observed=10.72

The record that follows has no pKd shown yet.
binder A30 (antibody, human IgG1, V domains shown, human IgG1/kappa (pFuse vectors), culture supernatant) VH: QVQLVQSGAEVKKPGASVKVSCKASGFDIQDTYMHWVKQRPGQGLEWIGRIDPASGHTKYDPKFQVRATITTDTSTSTAYLELSSLRSEDTAVYYCARSGGLPDVWGQGTTVTVSS VL: EIVLTQSPGTLSLSPGERATLSCRASSSVSYMYWYQQKPGQAPRLLIYATSNLASGIPDRFSGSGSGTDFTLTISRLEPEDFAVYYCQQWKGNPRTFGGGTKLEIK , pKd observed: 10.11

Hello, the source for this data is patent US20260216326A1, in case you need it.
